target-system: NLRP3 (Homo sapiens (Human), UniProt Q96P20)
Sequence (Q96P20 whole entry): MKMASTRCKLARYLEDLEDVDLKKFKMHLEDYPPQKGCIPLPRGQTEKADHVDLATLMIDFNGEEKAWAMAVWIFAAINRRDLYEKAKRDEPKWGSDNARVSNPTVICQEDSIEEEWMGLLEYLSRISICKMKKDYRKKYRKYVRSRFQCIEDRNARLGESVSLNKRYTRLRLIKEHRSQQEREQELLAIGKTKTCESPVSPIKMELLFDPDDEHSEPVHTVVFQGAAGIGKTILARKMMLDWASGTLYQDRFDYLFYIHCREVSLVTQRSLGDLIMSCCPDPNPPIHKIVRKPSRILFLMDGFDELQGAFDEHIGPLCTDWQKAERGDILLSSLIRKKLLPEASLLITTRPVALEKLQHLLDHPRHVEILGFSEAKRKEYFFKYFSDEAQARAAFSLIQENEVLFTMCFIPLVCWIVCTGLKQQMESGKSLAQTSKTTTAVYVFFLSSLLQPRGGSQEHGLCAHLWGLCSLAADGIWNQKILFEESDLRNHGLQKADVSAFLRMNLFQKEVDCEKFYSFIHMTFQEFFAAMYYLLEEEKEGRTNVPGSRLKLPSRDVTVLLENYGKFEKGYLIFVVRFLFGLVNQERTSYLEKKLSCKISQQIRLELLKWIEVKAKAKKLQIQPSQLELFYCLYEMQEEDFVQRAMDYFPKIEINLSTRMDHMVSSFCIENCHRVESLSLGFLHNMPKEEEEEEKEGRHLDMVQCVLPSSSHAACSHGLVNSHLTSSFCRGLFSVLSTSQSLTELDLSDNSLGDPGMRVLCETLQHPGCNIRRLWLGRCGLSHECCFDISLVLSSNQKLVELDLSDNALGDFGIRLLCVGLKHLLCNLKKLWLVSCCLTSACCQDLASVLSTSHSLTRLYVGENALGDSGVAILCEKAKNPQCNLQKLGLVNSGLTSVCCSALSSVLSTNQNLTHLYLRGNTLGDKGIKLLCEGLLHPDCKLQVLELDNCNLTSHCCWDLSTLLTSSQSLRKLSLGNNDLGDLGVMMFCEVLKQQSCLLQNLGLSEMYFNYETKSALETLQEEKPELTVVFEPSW
experiment-notes: Human whole blood IL1β release assay (LPS + nigericin)
Type: cell-based
assay-context: human whole blood, 1 μg/ml LPS, nigericin, IL-1β release; read-out: HWB IC50
Counter-ions that a name gives are not always drawn.
Give measured IC50 for each item. Keep answers brief.

Query: Input CC(C)CN1CC(S(=O)(=O)NC(=O)Nc2c3c(cc4c2CCC4)CCC3)C1 [Example 97, potassium salt] , output reported IC50.
Result: < 1000 nM

Query: Input COc1cc(-c2cc(F)cc(C(C)C)c2NC(=O)NS(=O)(=O)C2CN(C(C)C)C2)ccn1 [Example 158] , output reported IC50.
Result: < 1000 nM

Query: Input CC(C)(C)CN1CC(S(=O)(=O)NC(=O)Nc2c3c(cc4c2CCC4)CCC3)C1 [Example 135, potassium salt] , output reported IC50.
Result: 1000 to 10000 nM

Query: Input O=C(Nc1c2c(cc3c1CCC3)CCC2)NS(=O)(=O)C1CN(CCCO)C1 [Example 134, potassium salt] , output reported IC50.
Result: 1000 to 10000 nM

Query: Input CCCN1CC(S(=O)(=O)NC(=O)Nc2c3c(cc4c2CCC4)CCC3)C1 [Example 76, potassium salt] , output reported IC50.
Result: < 1000 nM

Query: Input CC(C)N1CCC(S(=O)(=O)NC(=O)Nc2c3c(cc4c2CCC4)CCC3)C1 (stereo not drawn) [Example 41, potassium salt] , output reported IC50.
Result: < 1000 nM

---

Give measured pIC50 for each item. Keep answers brief.
target-system: NLRP3 (Homo sapiens (Human), UniProt Q96P20)
experiment-notes: Human whole blood IL1β release assay (LPS + nigericin)
Format: cell-based
assay-context: human whole blood, 1 μg/ml LPS, nigericin, IL-1β release; read-out: HWB IC50
pIC50: −log10 of the molar value. Structures can show the parent of a compound that is named as a salt.

Query: Input COc1cc(-c2ccc3c(c2NC(=O)NS(=O)(=O)C2CN(Cc4cccnc4)C2)CCC3)ccn1 [Example 170] , output reported pIC50.
Result: 5.00 to 6.00

Query: Input CCC(=O)N1CCCC(S(=O)(=O)NC(=O)Nc2c3c(cc4c2CCC4)CCC3)C1 (stereo not shown) [Example 32, potassium salt] , output reported pIC50.
Result: 5.00 to 6.00

Query: Input CCN1CCC(S(=O)(=O)NC(=O)Nc2c3c(cc4c2CCC4)CCC3)CC1 [Example 6, potassium salt] , output reported pIC50.
Result: > 6.00

Query: Input CCN1CC(S(=O)(=O)NC(=O)Nc2c(-c3ccnc(OC)c3)ccc3c2CCC3)C1 [Example 167] , output reported pIC50.
Result: > 6.00

---

experiment-notes: PK, intravenous administration
Type: in vivo, male Sprague Dawley rats
assay-context: male, Sprague Dawley, plasma; rat, intravenous, dose 1 mg/kg; read-out: AUC
Counter-ions that a name gives are not always drawn.
Threshold check on AUC: strictly below 2000 ng·h/mL is True; on or above 2000 ng·h/mL is False.

Query: Quick check: does CC(C)N1CCCC(S(=O)(=O)NC(=O)Nc2c3c(cc4c2CCC4)CCC3)C1 (centres unmarked) [Example 31, potassium salt] have AUC under 2000 ng·h/mL?
Result: False

Query: Quick check: does COc1cc(-c2ccc3c(c2NC(=O)NS(=O)(=O)c2cn(C(C)C)c(=O)cn2)CCC3)ccn1 have AUC under 2000 ng·h/mL?
Result: True

Query: Quick check: does COc1cc(-c2ccc3c(c2NC(=O)NS(=O)(=O)c2ccc(=O)n(C(C)C)c2)CCC3)ccn1 have AUC under 2000 ng·h/mL?
Result: True

Query: Quick check: does CCN1CCC(S(=O)(=O)NC(=O)Nc2c3c(cc4c2CCC4)CCC3)CC1 [Example 6, potassium salt] have AUC under 2000 ng·h/mL?
Result: False

Query: Quick check: does O=C(Nc1c2c(cc3c1CCC3)CCC2)NS(=O)(=O)C1CN(C2CCC2)C1 [Example 18, potassium salt] have AUC under 2000 ng·h/mL?
Result: True

Query: Quick check: does CCN1CCCC(S(=O)(=O)NC(=O)Nc2c3c(cc4c2CCC4)CCC3)C1 (centres unmarked) [Example 9, potassium salt] have AUC under 2000 ng·h/mL?
Result: False

Query: Quick check: does O=C(Nc1c2c(cc3c1CCC3)CCC2)NS(=O)(=O)C1CN(C2CSC2)C1 [Example 109, potassium salt] have AUC under 2000 ng·h/mL?
Result: True

---

target-system: NLRP3 (Homo sapiens (Human))
experiment-notes: THP-1 cells pyroptosis assay (LPS + nigericin, resazurin read-out)
Type: cell-based
assay-context: 1 μg/ml LPS, 5 μM nigericin
pIC50: −log10 of the molar value. Counter-ions that a name gives are not always drawn.
Give measured pIC50 for each item. Keep answers brief.

Query: Provide the reported pIC50 (system: NLRP3 (Homo sapiens (Human))) for CN1CCC(S(=O)(=O)NC(=O)Nc2c3c(cc4c2CCC4)CCC3)CC1 [Example 1, potassium salt]
Result: 5.00 to 6.00

Query: Provide the reported pIC50 (system: NLRP3 (Homo sapiens (Human))) for O=C(Nc1c2c(cc3c1CCC3)CCC2)NS(=O)(=O)C1CN(CC2CC2)C1 [Example 94, potassium salt]
Result: > 6.00

Query: Provide the reported pIC50 (system: NLRP3 (Homo sapiens (Human))) for O=C(Nc1c2c(cc3c1CCC3)CCC2)NS(=O)(=O)C1CN(Cc2cccnc2Br)C1 [Example 105, potassium salt]
Result: > 6.00

Query: Provide the reported pIC50 (system: NLRP3 (Homo sapiens (Human))) for COc1cc(-c2ccc3c(c2NC(=O)NS(=O)(=O)C2CN(Cc4cccnc4)C2)CCC3)ccn1 [Example 170]
Result: 5.00 to 6.00

Query: Provide the reported pIC50 (system: NLRP3 (Homo sapiens (Human))) for O=C(Nc1c2c(cc3c1CCC3)CCC2)NS(=O)(=O)C1CN(CCC2CCOC2)C1 (stereo not shown) [Example 142, potassium salt]
Result: > 6.00

Query: Provide the reported pIC50 (system: NLRP3 (Homo sapiens (Human))) for CCN1CC(S(=O)(=O)NC(=O)Nc2c3c(cc4c2CCC4)CCC3)CC1=O (stereo not shown) [Example 147, potassium salt]
Result: 5.00 to 6.00

Query: Provide the reported pIC50 (system: NLRP3 (Homo sapiens (Human))) for O=C(Nc1c2c(cc3c1CCC3)CCC2)NS(=O)(=O)C1CCNCC1 [Example 4, potassium salt]
Result: 5.00 to 6.00

---

experiment-notes: PK, intravenous administration
Type: in vivo, male Sprague Dawley rats
assay-context: male, Sprague Dawley, plasma; rat, intravenous, dose 1 mg/kg; read-out: T1/2 (converted)
Structures can show the parent of a compound that is named as a salt.
Threshold check on half-life: strictly below 1 h is met; on or above 1 h is not met.

Query: Quick check: does CCN1CCC(S(=O)(=O)NC(=O)Nc2c3c(cc4c2CCC4)CCC3)CC1 [Example 6, potassium salt] have half-life under 1 h?
Result: not met

Query: Quick check: does CN1CCC(S(=O)(=O)NC(=O)Nc2c3c(cc4c2CCC4)CCC3)CC1 [Example 1, potassium salt] have half-life under 1 h?
Result: not met

Query: Quick check: does CC(C)N1CCC(S(=O)(=O)NC(=O)Nc2c3c(cc4c2CCC4)CCC3)C1 (centres unmarked) [Example 41, potassium salt] have half-life under 1 h?
Result: not met

Query: Quick check: does O=C(Nc1c2c(cc3c1CCC3)CCC2)NS(=O)(=O)C1CN(C2CCCC2)C1 [Example 99, potassium salt] have half-life under 1 h?
Result: met

Query: Quick check: does COc1cc(-c2ccc3c(c2NC(=O)NS(=O)(=O)c2ccc(=O)n(C(C)C)c2)CCC3)ccn1 have half-life under 1 h?
Result: not met

---

Give measured pIC50 for each item. Keep answers brief.
target-system: NLRP3 (Homo sapiens (Human), UniProt Q96P20)
experiment-notes: THP-1 cells pyroptosis assay (LPS + nigericin, resazurin read-out)
Format: cell-based
assay-context: 1 μg/ml LPS, 5 μM nigericin
pIC50: −log10 of the molar value. Where a name gives a salt, the structure may show the parent alone.

Query: Input CC(C)n1ccc(S(=O)(=O)NC(=O)Nc2c3c(cc4c2CCC4)CCC3)cc1=O [Example 180, sodium salt] , output reported pIC50.
Result: 5.00 to 6.00

Query: Input CCC(CC)N1CCC(S(=O)(=O)NC(=O)Nc2c3c(cc4c2CCC4)CCC3)C1 (stereo not drawn) [Example 81, potassium salt] , output reported pIC50.
Result: 5.00 to 6.00

Query: Input CCN1CCC(N2CCC(S(=O)(=O)NC(=O)Nc3c4c(cc5c3CCC5)CCC4)CC2)CC1 [Example 48, potassium salt] , output reported pIC50.
Result: 5.00 to 6.00

Query: Input CC(C)(C)OC(=O)N1CC(S(=O)(=O)NC(=O)Nc2c3c(cc4c2CCC4)CCC3)C1 [Example 77, potassium salt] , output reported pIC50.
Result: 5.00 to 6.00

Query: Input O=C(Nc1c2c(cc3c1CCC3)CCC2)NS(=O)(=O)C1CCN(C(=O)C(F)(F)F)CC1 [Example 8, potassium salt] , output reported pIC50.
Result: 5.00 to 6.00

Query: Input COC(=O)N1CCC(S(=O)(=O)NC(=O)Nc2c3c(cc4c2CCC4)CCC3)CC1 [Example 13, potassium salt] , output reported pIC50.
Result: > 6.00
